target: IKZF2 (Helios) (Homo sapiens, UniProt Q96SW2+Q9UKS7); test: Prolabel quantification of IKZF2 protein levels in 293GT cells; format: cell-based; conditions: 24 h, Pro-label assay, 293GT cells, 10 μM, read-out: IKZF2 % protein reduction at 10 μM, 24 h
Sequence (Q9UKS7 whole entry): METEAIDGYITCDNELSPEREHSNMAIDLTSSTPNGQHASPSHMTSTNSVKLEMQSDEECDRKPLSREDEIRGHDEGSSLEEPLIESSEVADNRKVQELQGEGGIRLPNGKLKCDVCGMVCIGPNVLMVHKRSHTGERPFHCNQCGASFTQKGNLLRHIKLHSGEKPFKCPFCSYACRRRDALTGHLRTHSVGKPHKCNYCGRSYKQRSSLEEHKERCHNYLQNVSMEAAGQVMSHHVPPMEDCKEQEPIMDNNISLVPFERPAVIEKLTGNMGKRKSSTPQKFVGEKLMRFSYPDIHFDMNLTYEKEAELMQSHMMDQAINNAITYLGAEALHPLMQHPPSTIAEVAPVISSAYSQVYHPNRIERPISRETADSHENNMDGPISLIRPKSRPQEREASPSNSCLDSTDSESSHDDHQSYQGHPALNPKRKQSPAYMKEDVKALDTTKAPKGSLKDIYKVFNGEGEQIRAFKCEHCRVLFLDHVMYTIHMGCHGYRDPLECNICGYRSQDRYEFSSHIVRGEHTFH
Sequence (Q96SW2 whole entry): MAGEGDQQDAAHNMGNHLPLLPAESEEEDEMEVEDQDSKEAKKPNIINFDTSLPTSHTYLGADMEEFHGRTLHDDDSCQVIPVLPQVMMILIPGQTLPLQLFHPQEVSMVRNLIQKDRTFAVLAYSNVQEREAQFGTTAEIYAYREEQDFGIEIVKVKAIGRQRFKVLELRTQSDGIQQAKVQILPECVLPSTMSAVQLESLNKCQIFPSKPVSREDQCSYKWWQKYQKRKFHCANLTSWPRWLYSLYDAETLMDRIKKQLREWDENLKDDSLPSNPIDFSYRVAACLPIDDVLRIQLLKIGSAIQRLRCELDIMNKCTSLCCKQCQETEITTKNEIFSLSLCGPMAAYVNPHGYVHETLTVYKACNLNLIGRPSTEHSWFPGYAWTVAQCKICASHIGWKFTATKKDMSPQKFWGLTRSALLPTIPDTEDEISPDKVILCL
Sequence (Q16531 whole entry partner): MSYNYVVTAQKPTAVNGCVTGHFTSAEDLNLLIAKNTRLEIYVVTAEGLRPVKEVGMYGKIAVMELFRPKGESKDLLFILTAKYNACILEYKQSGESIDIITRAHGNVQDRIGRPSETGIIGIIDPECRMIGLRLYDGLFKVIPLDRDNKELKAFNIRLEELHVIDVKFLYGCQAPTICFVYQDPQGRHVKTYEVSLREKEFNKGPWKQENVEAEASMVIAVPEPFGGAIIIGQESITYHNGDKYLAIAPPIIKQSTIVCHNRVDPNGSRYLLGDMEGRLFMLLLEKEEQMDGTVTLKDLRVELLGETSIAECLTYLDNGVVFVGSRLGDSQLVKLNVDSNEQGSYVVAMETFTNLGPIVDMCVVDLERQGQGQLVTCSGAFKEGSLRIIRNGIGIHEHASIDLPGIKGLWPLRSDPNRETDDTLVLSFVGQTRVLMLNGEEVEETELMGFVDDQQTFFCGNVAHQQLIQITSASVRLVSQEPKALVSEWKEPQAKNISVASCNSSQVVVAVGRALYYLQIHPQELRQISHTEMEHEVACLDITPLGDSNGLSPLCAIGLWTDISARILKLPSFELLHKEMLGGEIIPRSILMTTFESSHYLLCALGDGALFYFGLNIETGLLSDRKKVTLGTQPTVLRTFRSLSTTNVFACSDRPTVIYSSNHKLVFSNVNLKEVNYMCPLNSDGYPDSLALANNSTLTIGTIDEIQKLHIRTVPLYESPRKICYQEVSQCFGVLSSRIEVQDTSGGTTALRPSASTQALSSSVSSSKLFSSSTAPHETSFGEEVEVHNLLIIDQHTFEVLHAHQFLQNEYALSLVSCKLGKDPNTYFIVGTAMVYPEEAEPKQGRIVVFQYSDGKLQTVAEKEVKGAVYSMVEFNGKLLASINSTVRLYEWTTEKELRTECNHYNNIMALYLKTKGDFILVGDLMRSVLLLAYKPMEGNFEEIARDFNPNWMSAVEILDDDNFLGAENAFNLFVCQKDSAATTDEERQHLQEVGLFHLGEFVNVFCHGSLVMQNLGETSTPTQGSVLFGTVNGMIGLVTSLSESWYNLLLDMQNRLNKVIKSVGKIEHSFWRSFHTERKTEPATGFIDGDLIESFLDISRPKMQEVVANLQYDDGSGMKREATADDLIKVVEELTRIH
Attribute Measured: IKZF2 % protein reduction at 10 µM (%)

| Molecule | Target Desc | Result Number |
| --- | --- | --- |
| CCN(CC(F)F)[C@H]1CCC[C@@H]1Oc1ccc2c(c1)CN(C1CCC(=O)NC1=O)C2=O (stereo partly shown) [I-1] | IKZF2 (Helios) (Homo sapiens, UniProt Q96SW2+Q9UKS7) | 10 |
| O=C1CCC(N2Cc3cc(O[C@H]4CCC[C@@H]4N4CCC(O)C4)ccc3C2=O)C(=O)N1 (stereo partly shown) [I-139] | IKZF2 (Helios) (Homo sapiens, UniProt Q96SW2+Q9UKS7) | 83 |
| CC1(O)CCN([C@H]2CCC[C@@H]2Oc2ccc3c(c2)CN(C2CCC(=O)NC2=O)C3=O)CC1 (stereo partly shown) [I-138] | IKZF2 (Helios) (Homo sapiens, UniProt Q96SW2+Q9UKS7) | 83 |
| O=C1CCC(N2Cc3cc(O[C@H]4CCC[C@@H]4NCc4ccccn4)ccc3C2=O)C(=O)N1 (stereo partly shown) [I-145] | IKZF2 (Helios) (Homo sapiens, UniProt Q96SW2+Q9UKS7) | 52 |

###

molecular target: IKZF2 (Helios) (Homo sapiens, UniProt Q96SW2+Q9UKS7); assay: Prolabel quantification of IKZF2 protein levels in 293GT cells; type: cell-based; conditions: 24 h, Pro-label assay, 293GT cells, 10 μM, read-out: IKZF2 % protein reduction at 10 μM, 24 h
// reported IKZF2 % protein reduction at 10 µM for each item listed

| Molecule | IKZF2 % protein reduction at 10 µM (%) |
| --- | --- |
| CCN[C@H]1CCCC[C@@H]1Oc1ccc2c(c1)CN(C1CCC(=O)NC1=O)C2=O (some centres unmarked) | 85 |
| CCN(CCF)[C@H]1CCC[C@@H]1Oc1ccc2c(c1)CN(C1CCC(=O)NC1=O)C2=O (some centres unmarked) | 80 |
| CO[C@H]1CC[C@H](CN[C@H]2CCCC[C@@H]2Oc2ccc3c(c2)CN(C2CCC(=O)NC2=O)C3=O)CC1 (some centres unmarked) | 73 |
| CCN(CC)[C@H]1CCC[C@@H]1Oc1cc2c(cc1F)C(=O)N(C1CCC(=O)NC1=O)C2 (some centres unmarked) | 60 |
| CO[C@@H]1CCC[C@H]1N[C@H]1CCCC[C@@H]1Oc1ccc2c(c1)CN(C1CCC(=O)NC1=O)C2=O (single isomer, unassigned) | 67 |
| COC1CCC(CN[C@H]2CCCC[C@@H]2Oc2ccc3c(c2)CN(C2CCC(=O)NC2=O)C3=O)CC1 (some centres unmarked) | 82 |
| O=C1CCC(N2Cc3cc(O[C@H]4CCCC[C@@H]4N4CCOCC4)ccc3C2=O)C(=O)N1 (some centres unmarked) | 35 |
| O=C1CCC(N2Cc3cc(O[C@H]4CCCC[C@@H]4NCC4(C(F)(F)F)CC4)ccc3C2=O)C(=O)N1 (some centres unmarked) | 75 |

###

target: IKZF2 (Helios) (Homo sapiens, UniProt Q96SW2+Q9UKS7); experiment: Prolabel quantification of IKZF2 protein levels in 293GT cells; type: cell-based; conditions: 24 h, Pro-label assay, 293GT cells, 10 μM, read-out: IKZF2 % protein reduction at 10 μM, 24 h

| Molecule | IKZF2 % protein reduction at 10 µM / % |
| --- | --- |
| O=C1CCN([C@H]2CCC[C@@H]2Oc2ccc3c(c2)CN(C2CCC(=O)NC2=O)C3=O)CC1 (stereo partly shown) [I-137] | 80 |
| CN(C)[C@H]1CCCC[C@@H]1Oc1ccc2c(c1)CN(C1CCC(=O)NC1=O)C2=O (stereo partly shown) [I-80] | 65 |
| CCN(C)[C@H]1CCCC[C@@H]1Oc1ccc2c(c1)CN(C1CCC(=O)NC1=O)C2=O (stereo partly shown) [I-78] | 50 |
| O=C1CCC(N2Cc3cc(O[C@H]4CCCC[C@@H]4NCc4cncnc4)ccc3C2=O)C(=O)N1 (stereo partly shown) [I-103] | 54 |

###

biological target: IKZF2 (Helios) (Homo sapiens, UniProt Q96SW2+Q9UKS7); assay: Prolabel quantification of IKZF2 protein levels in 293GT cells; format: cell-based; conditions: 24 h, Pro-label assay, 293GT cells, 10 μM, read-out: IKZF2 % protein reduction at 10 μM, 24 h
Just a reminder that ties go to 0.0: only IKZF2 % protein reduction at 10 µM strictly below 60% counts as 1.0.

| Compound | Assigned Category |
| --- | --- |
| N[C@H]1CCC[C@@H]1Oc1ccc2c(c1)CN(C1CCC(=O)NC1=O)C2=O (some centres unmarked) | 0.0 |
| O=C1CCC(N2Cc3cc(O[C@H]4CCC[C@@H]4NCC4CC(F)(F)C4)ccc3C2=O)C(=O)N1 (some centres unmarked) | 0.0 |
| CCN(CC1COC1)[C@H]1CCC[C@@H]1Oc1ccc2c(c1)CN(C1CCC(=O)NC1=O)C2=O (some centres unmarked) | 0.0 |
| CC1(CN(CC2(C)COC2)[C@H]2CCC[C@@H]2Oc2ccc3c(c2)CN(C2CCC(=O)NC2=O)C3=O)COC1 (some centres unmarked) | 1.0 |
| O=C1CCC(N2Cc3cc(O[C@H]4CCCC[C@@H]4N4CC(OCC5CC5)C4)ccc3C2=O)C(=O)N1 (some centres unmarked) | 0.0 |
| O=C1CCC(N2Cc3cc(O[C@H]4CCCC[C@@H]4N4CCCCC4)ccc3C2=O)C(=O)N1 (some centres unmarked) | 1.0 |
| CC(C)CN[C@H]1CCCC[C@@H]1Oc1ccc2c(c1)CN(C1CCC(=O)NC1=O)C2=O (some centres unmarked) | 0.0 |
| CCN(CC12CC(F)(C1)C2)[C@H]1CCC[C@@H]1Oc1ccc2c(c1)CN(C1CCC(=O)NC1=O)C2=O (some centres unmarked) | 1.0 |

###

Below, each entry is listed with its recorded IKZF2 % protein reduction at 10 µM.
biological target: IKZF2 (Helios) (Homo sapiens, UniProt Q96SW2+Q9UKS7); test: Prolabel quantification of IKZF2 protein levels in 293GT cells; format: cell-based; conditions: 24 h, read-out: IKZF2 % protein reduction at 10 μM, 24 h

| Compound | IKZF2 % protein reduction at 10 µM [%] |
| --- | --- |
| N[C@H]1c2ccccc2C[C@@H]1Oc1ccc2c(c1)CN(C1CCC(=O)NC1=O)C2=O (stereo partly shown) | 68 |
| O=C1CCC(N2Cc3cc(O[C@H]4CCC[C@@H]4N4CCSCC4)ccc3C2=O)C(=O)N1 (stereo in doubt) | 38 |
| CC(C)OC1CCN([C@H]2CCC[C@@H]2Oc2ccc3c(c2)CN(C2CCC(=O)NC2=O)C3=O)CC1 (stereo partly shown) | 79 |
| CCN(CC)[C@H]1c2ccccc2C[C@@H]1Oc1ccc2c(c1)CN(C1CCC(=O)NC1=O)C2=O (stereo partly shown) | 71 |
| CCN(CC)[C@H]1CCCCC[C@@H]1Oc1ccc2c(c1)CN(C1CCC(=O)NC1=O)C2=O (stereo partly shown) | 39 |
| N#C[C@H]1CC[C@H](CN[C@H]2CCC[C@@H]2Oc2ccc3c(c2)CN(C2CCC(=O)NC2=O)C3=O)CC1 (stereo partly shown) | 75 |
| O=C1CCC(N2Cc3cc(O[C@H]4CCC[C@@H]4N4C[C@@H]5[C@H](C4)[C@H]4CC[C@@H]5O4)ccc3C2=O)C(=O)N1 (stereo partly shown) | 70 |
| CCn1cc(CN[C@H]2CCCC[C@@H]2Oc2ccc3c(c2)CN(C2CCC(=O)NC2=O)C3=O)cn1 (stereo partly shown) | 79 |
| CC1(C)CCN([C@H]2CCC[C@@H]2Oc2ccc3c(c2)CN(C2CCC(=O)NC2=O)C3=O)CC1 (stereo partly shown) | 85 |
| O=C1CCC(N2Cc3cc(O[C@H]4CCC[C@@H]4N4CCC(OCC5CC5)CC4)ccc3C2=O)C(=O)N1 (stereo partly shown) | 86 |
| O=C1CCC(N2Cc3cc(O[C@H]4CCCCC[C@@H]4NCc4ccccc4)ccc3C2=O)C(=O)N1 (stereo partly shown) | 75 |
| O=C1CCC(N2Cc3cc(O[C@H]4CCC[C@@H]4N4CCC(OC(F)F)CC4)ccc3C2=O)C(=O)N1 (stereo partly shown) | 85 |
| CCN[C@H]1c2ccccc2C[C@@H]1Oc1ccc2c(c1)CN(C1CCC(=O)NC1=O)C2=O (stereo partly shown) | 67 |

###

biological target: IKZF2 (Helios) (Homo sapiens, UniProt Q96SW2+Q9UKS7); assay: Prolabel quantification of IKZF2 protein levels in 293GT cells; format: cell-based; conditions: 24 h, read-out: IKZF2 % protein reduction at 10 μM, 24 h
Structures can show the parent of a compound that is named as a salt.
// reported IKZF2 % protein reduction at 10 µM for each item listed

| Compound | Unit Tag | IKZF2 % protein reduction at 10 µM |
| --- | --- | --- |
| O=C1CCC(N2Cc3cc(O[C@H]4CCC[C@@H]4N4CCC(F)CC4)ccc3C2=O)C(=O)N1 (some centres unmarked) | % | 81 |
| CCN[C@H]1CCCCC[C@@H]1Oc1ccc2c(c1)CN(C1CCC(=O)NC1=O)C2=O (some centres unmarked) | % | 80 |
| O=C1CCC(N2Cc3cc(O[C@H]4CCC[C@@H]4NCc4cccnc4)ccc3C2=O)C(=O)N1 (some centres unmarked) | % | 51 |
| CCN(C[C@H]1CC[C@H](OC)CC1)[C@H]1CCC[C@@H]1Oc1ccc2c(c1)CN(C1CCC(=O)NC1=O)C2=O (some centres unmarked) | % | 67 |
| N[C@@H]1CCC[C@@H]1Oc1ccc2c(c1)CN(C1CCC(=O)NC1=O)C2=O (some centres unmarked) [I-28, hydrochloride] | % | 0 |
| Cc1cccc(CN[C@H]2CCCC[C@@H]2Oc2ccc3c(c2)CN(C2CCC(=O)NC2=O)C3=O)n1 (some centres unmarked) | % | 57 |
| N[C@H]1CCCC[C@@H]1Oc1ccc2c(c1)CN(C1CCC(=O)NC1=O)C2=O (some centres unmarked) [I-15, hydrochloride] | % | 50 |
| CCOC1CCN([C@H]2CCC[C@@H]2Oc2ccc3c(c2)CN(C2CCC(=O)NC2=O)C3=O)CC1 (some centres unmarked) | % | 70 |
